# Experimental system: TrkB (h) (Homo sapiens, UniProt Q16620)
# Sequence (Q16620 32-822): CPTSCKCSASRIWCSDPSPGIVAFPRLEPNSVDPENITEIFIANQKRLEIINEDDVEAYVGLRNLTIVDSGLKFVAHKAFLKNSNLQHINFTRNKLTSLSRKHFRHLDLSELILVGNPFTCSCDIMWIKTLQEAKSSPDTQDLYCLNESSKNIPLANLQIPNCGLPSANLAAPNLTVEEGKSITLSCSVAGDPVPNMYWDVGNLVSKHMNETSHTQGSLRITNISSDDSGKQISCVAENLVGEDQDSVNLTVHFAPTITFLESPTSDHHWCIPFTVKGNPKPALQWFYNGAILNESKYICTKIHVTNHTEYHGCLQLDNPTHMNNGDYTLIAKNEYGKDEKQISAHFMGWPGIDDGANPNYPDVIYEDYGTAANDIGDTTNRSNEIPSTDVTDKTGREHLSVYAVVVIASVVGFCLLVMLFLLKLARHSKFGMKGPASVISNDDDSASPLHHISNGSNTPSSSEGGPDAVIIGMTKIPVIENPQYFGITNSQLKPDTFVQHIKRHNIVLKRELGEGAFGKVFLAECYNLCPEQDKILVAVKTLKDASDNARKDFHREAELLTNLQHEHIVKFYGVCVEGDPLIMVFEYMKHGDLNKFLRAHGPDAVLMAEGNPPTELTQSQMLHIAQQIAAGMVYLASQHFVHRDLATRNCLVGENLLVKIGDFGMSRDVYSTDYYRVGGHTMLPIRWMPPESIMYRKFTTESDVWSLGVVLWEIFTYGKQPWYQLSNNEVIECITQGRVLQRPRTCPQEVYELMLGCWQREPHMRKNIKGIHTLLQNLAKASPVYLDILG
# Test description: Millipore radiometric kinase assay (IC50 Profiler Express / kinase profiling)
# Assay type: biochemical
# Text: Specifically, in these assays, a positively charged substrate is phosphorylated with a radiolabeled phosphate group from an ATP if the kinase is not inhibited by an inhibitor peptide. The positively charged substrate then is attracted to a negatively charged filter membrane, quantified with a scintillation counter, and compared to a 100% activity control.
Where no end group is shown, it is not given here.
Experimental endpoint: IC50 (µM)
Write the answer as a number in µM, unit excluded.

Lookup: Quick check: IC50 of YARAAARQARAKALARQLGVAA [MMI-0100] ?
Found: 4.6

src = patent US20140072613A1
